# Tested on: Staphylococcus sp.
# assay.name: in vitro antibacterial evaluation, MIC by broth dilution
# Format: cell-based
# condition.info: broth dilution, 18 hours at 35° C.; strain GC 4542
value.type: MIC Staphylococcus aureus (GC 4542) (µg/mL)
Numbers only, in µg/mL.

// below: answered compounds
{"compound": "CC(c1ccccc1)C1NC(=O)CNC(=O)C(CO)NC(=O)C(C(O)C2CNC(=N)N2C2OC(CO)C(O)C(O)C2O)NC(=O)C(C(O)C2CNC(=N)N2)NC(=O)C(Cc2ccc(OC3OC(CO)C(OC4OC(CO)C(OCC=Cc5ccc(N(C)C)cc5)C(O)C4O)C(O)C3O)cc2)NC1=O (centres unmarked) [Example 243a]", "unit.descriptor": "µg/mL", "MIC Staphylococcus aureus (GC 4542)": 32}
{"compound": "CC(C)C(=O)OCC1OC(OC2C(CO)OC(Oc3ccc(CC4NC(=O)C(Cc5ccccc5)NC(=O)CNC(=O)C(CO)NC(=O)C(C(O)C5CNC(=N)N5C5OC(CO)C(O)C(O)C5O)NC(=O)C(C(O)C5CNC(=N)N5)NC4=O)cc3)C(O)C2O)C(O)C(O)C1O (centres unmarked) [Example 283a]", "unit.descriptor": "µg/mL", "MIC Staphylococcus aureus (GC 4542)": 64}
{"compound": "CCC(C)C(=O)OC1C(CO)OC(OC2C(CO)OC(Oc3ccc(CC4NC(=O)C(C(C)c5ccccc5)NC(=O)CNC(=O)C(CO)NC(=O)C(C(O)C5CNC(=N)N5C5OC(CO)C(O)C(O)C5O)NC(=O)C(C(O)C5CNC(=N)N5)NC4=O)cc3)C(O)C2O)C(O)C1O (centres unmarked) [Example 278c]", "unit.descriptor": "µg/mL", "MIC Staphylococcus aureus (GC 4542)": 4}
{"compound": "CC(C)=CCCC(C)CC1OCC2OC(OC3C(CO)OC(Oc4ccc(CC5NC(=O)C(C(C)c6ccccc6)NC(=O)CNC(=O)C(CO)NC(=O)C(C(O)C6CNC(=N)N6C6OC(CO)C(O)C(O)C6O)NC(=O)C(C(O)C6CNC(=N)N6)NC5=O)cc4)C(O)C3O)C(O)C(O)C2O1 (centres unmarked) [Example 126]", "unit.descriptor": "µg/mL", "MIC Staphylococcus aureus (GC 4542)": 8}
{"compound": "CC(C)=CCCC1OCC2OC(OC3C(CO)OC(Oc4ccc(CC5NC(=O)C(C(C)c6ccccc6)NC(=O)CNC(=O)C(CO)NC(=O)C(C(O)C6CNC(=N)N6C6OC(CO)C(O)C(O)C6O)NC(=O)C(C(O)C6CNC(=N)N6)NC5=O)cc4)C(O)C3O)C(O)C(O)C2O1 (centres unmarked) [Example 123]", "unit.descriptor": "µg/mL", "MIC Staphylococcus aureus (GC 4542)": 4}
{"compound": "COc1ccc2cc(COC3C(OC4C(CO)OC(Oc5ccc(CC6NC(=O)C(C(C)c7ccccc7)NC(=O)CNC(=O)C(CO)NC(=O)C(CC7CNC(=N)N7C7OC(CO)C(O)C(O)C7O)NC(=O)C(CC7CNC(=N)N7)NC6=O)cc5)C(O)C4O)OC(CO)C(O)C3O)ccc2c1 (centres unmarked) [Example 245c]", "unit.descriptor": "µg/mL", "MIC Staphylococcus aureus (GC 4542)": 128}
{"compound": "CC(C)=CCOc1cccc(C2OCC3OC(OC4C(CO)OC(Oc5ccc(CC6NC(=O)C(C(C)c7ccccc7)NC(=O)CNC(=O)C(CO)NC(=O)C(C(O)C7CNC(=N)N7C7OC(CO)C(O)C(O)C7O)NC(=O)C(C(O)C7CNC(=N)N7)NC6=O)cc5)C(O)C4O)C(O)C(O)C3O2)c1 (centres unmarked) [Example 165]", "unit.descriptor": "µg/mL", "MIC Staphylococcus aureus (GC 4542)": 16}
{"compound": "CC(c1ccccc1)C1NC(=O)CNC(=O)C(CO)NC(=O)C(C(O)C2CNC(=N)N2C2OC(CO)C(O)C(O)C2O)NC(=O)C(C(O)C2CNC(=N)N2)NC(=O)C(Cc2ccc(OC3OC(CO)C(OC4OC5COC(c6ccc(C(=O)c7ccccc7)cc6)OC5C(O)C4O)C(O)C3O)cc2)NC1=O (centres unmarked) [Example 173]", "unit.descriptor": "µg/mL", "MIC Staphylococcus aureus (GC 4542)": 0.5}

For each listed entry, give its MIC Staphylococcus aureus (GC 4542).
1. CC(c1ccccc1)C1NC(=O)CNC(=O)C(CO)NC(=O)C(C(O)C2CNC(=N)N2C2OC(CO)C(O)C(O)C2O)NC(=O)C(C(O)C2CNC(=N)N2)NC(=O)C(Cc2ccc(OC3OC(CO)C(OC4OC5COC(c6cc7c(cc6Cl)OCO7)OC5C(O)C4O)C(O)C3O)cc2)NC1=O (centres unmarked) [Example 158]
2. COc1cc(C2OCC3OC(OC4C(CO)OC(Oc5ccc(CC6NC(=O)C(C(C)c7ccccc7)NC(=O)CNC(=O)C(CO)NC(=O)C(C(O)C7CNC(=N)N7C7OC(CO)C(O)C(O)C7O)NC(=O)C(C(O)C7CNC(=N)N7)NC6=O)cc5)C(O)C4O)C(O)C(O)C3O2)cc([N+](=O)[O-])c1O (centres unmarked) [Example 169]
3. COc1ccc(COCC2OC(OC3C(CO)OC(Oc4ccc(CC5NC(=O)C(C(C)c6ccccc6)NC(=O)CNC(=O)C(CO)NC(=O)C(C(O)C6CNC(=N)N6C6OC(CO)C(O)C(O)C6O)NC(=O)C(C(O)C6CNC(=N)N6)NC5=O)cc4)C(O)C3O)C(O)C(O)C2O)cc1 (centres unmarked) [Example 232]

output:
1. 1
2. 32
3. 4
